# targetOrSystem: T1, human chemokine (C-C motif) receptor 8 (CCR8) (human, UniProt P51685 1-355)
# T1 construct: also called hCCR8
# T1 sequence (P51685 whole entry): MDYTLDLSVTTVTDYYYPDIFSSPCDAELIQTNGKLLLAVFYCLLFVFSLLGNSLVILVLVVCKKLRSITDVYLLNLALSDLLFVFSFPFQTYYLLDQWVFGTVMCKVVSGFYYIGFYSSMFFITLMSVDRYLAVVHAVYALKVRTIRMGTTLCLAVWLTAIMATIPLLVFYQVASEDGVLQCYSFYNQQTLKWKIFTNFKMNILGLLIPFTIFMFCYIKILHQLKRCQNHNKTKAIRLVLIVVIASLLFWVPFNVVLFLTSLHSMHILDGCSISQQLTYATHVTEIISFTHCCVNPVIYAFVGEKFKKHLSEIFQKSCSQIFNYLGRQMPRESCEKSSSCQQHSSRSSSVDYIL
# assayExplanation: flow cytometry blocking, human PBMC, CD3+ gate; % cells stained by competitor PE-AB11 after block
valueType: % Positive cells (%)
Unit % implied. Number only.

{"binder": "anti-CCR8 monoclonal antibody AB7 (antibody, V domains shown, Hybridoma monoclonal; also called antibody 7; clone 7) VH: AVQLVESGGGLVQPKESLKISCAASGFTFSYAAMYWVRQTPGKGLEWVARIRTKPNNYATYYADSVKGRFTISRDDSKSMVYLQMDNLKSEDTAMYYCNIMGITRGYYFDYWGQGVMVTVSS VL: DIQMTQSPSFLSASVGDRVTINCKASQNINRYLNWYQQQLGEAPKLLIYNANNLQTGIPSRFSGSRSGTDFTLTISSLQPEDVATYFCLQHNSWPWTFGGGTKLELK", "% Positive cells / %": 0.14}
{"binder": "anti-CCR8 monoclonal antibody AB6 (antibody, V domains shown, also called antibody 6; clone 6) VH: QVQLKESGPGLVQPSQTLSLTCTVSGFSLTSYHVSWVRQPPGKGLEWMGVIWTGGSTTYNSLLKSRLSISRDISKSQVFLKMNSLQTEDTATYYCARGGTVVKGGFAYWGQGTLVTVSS VL: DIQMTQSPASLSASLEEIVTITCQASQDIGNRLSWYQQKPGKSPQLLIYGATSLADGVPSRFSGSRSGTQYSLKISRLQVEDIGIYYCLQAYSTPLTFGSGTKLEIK", "% Positive cells / %": 7.67}

*Q* Give recorded % Positive cells. anti-CCR8 monoclonal antibody AB8 (antibody, V domains shown, Hybridoma monoclonal; also called antibody 8; clone 8) VH: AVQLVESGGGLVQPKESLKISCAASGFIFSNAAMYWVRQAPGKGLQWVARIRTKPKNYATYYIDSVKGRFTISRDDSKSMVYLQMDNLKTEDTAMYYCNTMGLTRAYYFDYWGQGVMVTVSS VL: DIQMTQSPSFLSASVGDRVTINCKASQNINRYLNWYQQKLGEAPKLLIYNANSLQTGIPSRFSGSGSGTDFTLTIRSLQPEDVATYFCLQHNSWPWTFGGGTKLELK
*A* 0.69
